Recorded LC retention time, one value per entry.
- procedureSummary: RP, Thermo Scientific Acclaim RSLC 120 C18, 100 × 2.1 mm, 2.2 µm, 30 °C, 0.2 mL/min, estimated dead time 1.1 min; A: 90% water + 10% methanol + 0.01% formic acid + 5 mM ammonium formate, pH 3.61; B: methanol + 0.01% formic acid + 5 mM ammonium formate, pH 3.61; gradient (min/%B) 0/1 1/1 2/39 13/99.9 15/99.9 15.1/1 20.1/1
- appliedConditions: stereoisomer not certain
Answer in min, number only, no unit symbol.

Answered cases to consult:
CCCc1nc(C)c2c(=O)[nH]c(-c3cc(S(=O)(=O)N4CCN(CCO)CC4)ccc3OCC)nn12 [Vardenafil-Hydroxy] :: 8.05
O=C(O)CCCCC1SCC2NC(=O)NC21 (configuration not stated) :: 4.44
CN(C)CCOc1ccc(C(=C(CCCl)c2ccccc2)c2ccccc2)cc1 :: 10.5
COP(=S)(OC)SCn1nnc2ccccc2c1=O :: 8.89
CCN(CC)CCOCCOC(=O)C1(c2ccccc2)CCCC1 :: 7.87

# next molecule below
## Input Which LC retention time value is on record for COc1ccc(CC2c3cc(OC)c(OC)cc3CCN2C)cc1OC (configuration not stated) ?
## Output 4.71
